- Target under test: UniProt:O14920
- Sequence (O14920 1-756): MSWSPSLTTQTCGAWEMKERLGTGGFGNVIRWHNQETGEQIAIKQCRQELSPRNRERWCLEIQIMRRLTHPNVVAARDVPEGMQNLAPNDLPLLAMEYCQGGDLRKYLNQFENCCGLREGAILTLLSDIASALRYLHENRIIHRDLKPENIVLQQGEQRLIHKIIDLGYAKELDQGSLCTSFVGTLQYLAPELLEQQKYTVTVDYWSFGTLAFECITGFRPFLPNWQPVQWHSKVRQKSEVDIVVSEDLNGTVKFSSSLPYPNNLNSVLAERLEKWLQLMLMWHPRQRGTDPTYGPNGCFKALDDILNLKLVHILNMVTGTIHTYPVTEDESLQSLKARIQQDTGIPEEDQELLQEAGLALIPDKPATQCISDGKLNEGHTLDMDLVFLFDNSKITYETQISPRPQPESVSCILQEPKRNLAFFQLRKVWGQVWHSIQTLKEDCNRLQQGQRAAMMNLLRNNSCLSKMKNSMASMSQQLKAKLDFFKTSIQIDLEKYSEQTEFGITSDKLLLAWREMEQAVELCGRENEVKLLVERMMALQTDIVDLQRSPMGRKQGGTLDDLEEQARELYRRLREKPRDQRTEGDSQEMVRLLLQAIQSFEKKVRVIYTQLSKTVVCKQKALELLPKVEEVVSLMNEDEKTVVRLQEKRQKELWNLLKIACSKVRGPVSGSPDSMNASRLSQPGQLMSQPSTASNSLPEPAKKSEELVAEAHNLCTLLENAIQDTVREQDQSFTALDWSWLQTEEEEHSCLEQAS
Structures can show the parent of a compound that is named as a salt.
Form field: IC50 (one value per entry).

Reference set (5 entries):
{"Compound": "O=C1Nc2nc(-c3c(O)cccc3OCc3ccccc3)cc(C3CCCNC3)c2CO1 (stereo not drawn) [Example 18-10]", "Outcome measure": "IC50", "Result": "< 500 nM"}
{"Compound": "CCOC(=O)C1Cc2c(C3CCCNC3)cc(-c3ccccc3O)nc2NC1=O (stereo not drawn) [Example 26-1]", "Outcome measure": "IC50", "Result": "< 500 nM"}
{"Compound": "O=C1Nc2nc(-c3c(O)cccc3OCc3ccccc3)cc(C3CCNCC3)c2CO1 [Example 18-16]", "Outcome measure": "IC50", "Result": "< 500 nM"}
{"Compound": "N#Cc1c([C@@H]2Cc3ccccc3CN2)cc(-c2ccccc2O)nc1N [Example 1-27]", "Outcome measure": "IC50", "Result": "2000 to 10000 nM"}
{"Compound": "Oc1ccccc1-c1cc(C2CCCNC2)c2cn[nH]c2n1 (stereo not drawn) [Example 16-1, hydrochloride]", "Outcome measure": "IC50", "Result": "500 to 2000 nM"}

**Query** Form: Entry = O=C1NCc2c(C3CCNCC3)cc(-c3c(O)cccc3OCC3CC3)nc2N1 [Example 22-3, hydrochloride] | System = UniProt:O14920 | IC50 = ____
**Result** < 500 nM

* * *

Form field: IC50 (one value per entry).
- Target under test: human IKK-β (Homo sapiens, UniProt O14920)
- Sequence (O14920 1-756): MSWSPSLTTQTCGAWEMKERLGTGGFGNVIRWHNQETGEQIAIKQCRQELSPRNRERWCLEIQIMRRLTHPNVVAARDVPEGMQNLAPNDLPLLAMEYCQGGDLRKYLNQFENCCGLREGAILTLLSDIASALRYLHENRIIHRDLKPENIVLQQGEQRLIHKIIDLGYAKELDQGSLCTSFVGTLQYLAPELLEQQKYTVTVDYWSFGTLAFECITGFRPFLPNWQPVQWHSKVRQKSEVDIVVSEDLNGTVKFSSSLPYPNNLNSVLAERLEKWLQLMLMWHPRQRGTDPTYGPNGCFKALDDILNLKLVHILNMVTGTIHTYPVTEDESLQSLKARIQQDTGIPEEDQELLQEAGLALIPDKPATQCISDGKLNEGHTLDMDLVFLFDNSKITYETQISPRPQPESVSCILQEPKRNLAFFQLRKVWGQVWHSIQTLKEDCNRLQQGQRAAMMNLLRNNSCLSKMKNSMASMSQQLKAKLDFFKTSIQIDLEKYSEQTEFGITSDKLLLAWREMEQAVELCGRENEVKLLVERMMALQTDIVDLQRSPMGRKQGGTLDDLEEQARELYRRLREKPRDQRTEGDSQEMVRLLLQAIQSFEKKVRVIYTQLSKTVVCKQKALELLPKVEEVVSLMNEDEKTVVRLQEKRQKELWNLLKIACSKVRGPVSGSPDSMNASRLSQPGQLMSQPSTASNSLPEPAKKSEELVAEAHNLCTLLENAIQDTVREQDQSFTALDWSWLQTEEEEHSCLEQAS
Where a name gives a salt, the structure may show the parent alone.

Reference set (7 entries):
{"Molecule": "NC(=O)C1Cc2c(C3CCNCC3)cc(-c3c(O)cccc3OCC3CC3)nc2NC1=O (centres unmarked) [Example 26-2, hydrochloride]", "IC50": "< 500 nM"}
{"Molecule": "COc1ccc(CN2CCCC(c3cc(-c4c(O)cccc4O)nc(N)c3C#N)C2)cc1 (centres unmarked) [Example 3-07]", "IC50": "< 500 nM"}
{"Molecule": "CC(O)c1c(C2CCCNC2)cc(-c2ccccc2O)nc1N (centres unmarked) [Example 15-1, hydrochloride]", "IC50": "< 500 nM"}
{"Molecule": "Cc1cc(COc2cccc(O)c2-c2cc(C3CCCNC3)c(C#N)c(N)n2)no1 (centres unmarked) [Example 2-49]", "IC50": "< 500 nM"}
{"Molecule": "N#Cc1c([C@@H](N)CCc2ccccc2)cc(-c2ccccc2O)nc1N [Example 1-29]", "IC50": "500 to 2000 nM"}
{"Molecule": "O=c1[nH]c2nc(-c3ccccc3O)cc(C3CCCNC3)c2c(=O)n1-c1ccccc1 (centres unmarked) [Example 7-3, hydrochloride]", "IC50": "500 to 2000 nM"}
{"Molecule": "N#Cc1c(CCN)cc(-c2ccccc2O)nc1N [Example 1-37]", "IC50": "< 500 nM"}

**Query** Which IC50 reading was recorded for the molecule N#Cc1c(C2CCCNC2)cc(-c2c(O)cccc2OCc2c(Cl)cccc2Cl)nc1N (centres unmarked) [Example 2-20] ?
**Result** < 500 nM

Just for reference, patent US6984649B1 is where these values come from.
